Molecular target: High affinity nerve growth factor receptor (Homo sapiens, UniProt P04629)
Sequence (P04629 whole entry): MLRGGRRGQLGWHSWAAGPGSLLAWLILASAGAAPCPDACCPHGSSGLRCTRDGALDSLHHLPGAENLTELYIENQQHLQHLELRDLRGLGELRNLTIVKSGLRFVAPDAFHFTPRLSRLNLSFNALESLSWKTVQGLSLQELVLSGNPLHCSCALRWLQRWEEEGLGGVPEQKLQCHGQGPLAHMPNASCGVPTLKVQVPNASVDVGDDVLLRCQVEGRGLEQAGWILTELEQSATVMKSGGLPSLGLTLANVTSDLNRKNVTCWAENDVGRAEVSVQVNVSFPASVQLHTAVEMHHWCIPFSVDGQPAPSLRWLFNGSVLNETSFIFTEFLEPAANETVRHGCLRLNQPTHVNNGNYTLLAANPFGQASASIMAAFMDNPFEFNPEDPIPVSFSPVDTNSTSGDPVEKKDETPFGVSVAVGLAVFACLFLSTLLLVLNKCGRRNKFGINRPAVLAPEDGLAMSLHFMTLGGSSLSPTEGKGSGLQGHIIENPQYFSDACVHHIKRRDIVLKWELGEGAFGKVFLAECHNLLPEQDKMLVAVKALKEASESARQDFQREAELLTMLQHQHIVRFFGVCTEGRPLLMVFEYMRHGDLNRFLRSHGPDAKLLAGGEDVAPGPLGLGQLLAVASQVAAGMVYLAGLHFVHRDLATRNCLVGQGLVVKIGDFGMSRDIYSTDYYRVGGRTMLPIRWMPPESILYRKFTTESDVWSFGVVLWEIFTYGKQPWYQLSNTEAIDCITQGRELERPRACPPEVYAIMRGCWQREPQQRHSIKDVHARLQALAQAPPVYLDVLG
testReadout: IC50 (nM)

In [3]: df
Out[3]:
                            smilesstructure  testreadout  unitdescriptor  datavalue
0  CNC(=O)c1cc(-c2cnc3cc(-c4cnn(C)c4)c(O[C@H]4CCOC4)nn23)c(F)c(C(F)F)c1         IC50              nM        443

====

Readings of bioavailability for the listed molecules
Experiment: Oral bioavailability in Sprague-Dawley rat at 3.1 mg/kg measured upto 24 hrs by LC-MS/MS analysis
Assay type: ADME, organism-based
Conditions: in vivo
testReadout: bioavailability (%)

>>> df
                            smilesstructure      testreadout  datavalue
0  [2H]C([2H])([2H])NC(=O)c1cncc(-c2cnn3cc(-c4cnn(C(C)C)c4)c(O[C@H]4CCOC4)nc23)c1  bioavailability         82
1  CNC(=O)c1cc(F)c(F)c(-c2cnc3cc(-c4cnn(C)c4)c(O[C@H]4CCOC4)nn23)c1  bioavailability         54

====

Biological target: CYP3A4 (Homo sapiens, UniProt P08684)
Assay: Inhibition of human liver microsomes CYP3A4 at 5 uM using midazolam or testosterone as substrate in presence of NADPH regenerating system by LC-MS/MS analysis relative to control
Type: ADME, Microsome
Conditions: probe midazolam or testosterone
Listing of entries alongside the reported inhibition at 5 µM.
testReadout: inhibition at 5 µM (%)

>>> df
                                   compound  unitdescriptor  datavalue
0  CNC(=O)c1cncc(-c2cnn3cc(-c4cnn(C)c4)c(OC4CCOC4)nc23)c1 (racemic)               %         15
1  CNC(=O)c1cncc(-c2cnc3cc(-c4cnn(C)c4)c(OC4CCOC4)nn23)c1 (configuration not stated)               %          0

====

Observed IC50, system Platelet-derived growth factor receptor beta (Homo sapiens, UniProt P09619).
testReadout: IC50 (nM)

>>> print(df.to_string())
                            smilesstructure  unitdescriptor  datavalue
0  CNC(=O)c1cccc(-c2cnc3cc(-c4cnn(C)c4)c(O[C@H]4CCOC4)nn23)c1              nM         66
1  CNC(=O)c1cc(F)c(F)c(-c2cnc3cc(-c4cnn(C)c4)c(O[C@H]4CCOC4)nn23)c1              nM       1740
2  CNC(=O)c1ccc(F)c(-c2cnc3cc(-c4cnn(C)c4)c(OC)nn23)c1              nM        348

====

Biological target: Fibroblast growth factor receptor 2 (Homo sapiens, UniProt P21802)
Sequence (P21802 whole entry, the tested form may be a part): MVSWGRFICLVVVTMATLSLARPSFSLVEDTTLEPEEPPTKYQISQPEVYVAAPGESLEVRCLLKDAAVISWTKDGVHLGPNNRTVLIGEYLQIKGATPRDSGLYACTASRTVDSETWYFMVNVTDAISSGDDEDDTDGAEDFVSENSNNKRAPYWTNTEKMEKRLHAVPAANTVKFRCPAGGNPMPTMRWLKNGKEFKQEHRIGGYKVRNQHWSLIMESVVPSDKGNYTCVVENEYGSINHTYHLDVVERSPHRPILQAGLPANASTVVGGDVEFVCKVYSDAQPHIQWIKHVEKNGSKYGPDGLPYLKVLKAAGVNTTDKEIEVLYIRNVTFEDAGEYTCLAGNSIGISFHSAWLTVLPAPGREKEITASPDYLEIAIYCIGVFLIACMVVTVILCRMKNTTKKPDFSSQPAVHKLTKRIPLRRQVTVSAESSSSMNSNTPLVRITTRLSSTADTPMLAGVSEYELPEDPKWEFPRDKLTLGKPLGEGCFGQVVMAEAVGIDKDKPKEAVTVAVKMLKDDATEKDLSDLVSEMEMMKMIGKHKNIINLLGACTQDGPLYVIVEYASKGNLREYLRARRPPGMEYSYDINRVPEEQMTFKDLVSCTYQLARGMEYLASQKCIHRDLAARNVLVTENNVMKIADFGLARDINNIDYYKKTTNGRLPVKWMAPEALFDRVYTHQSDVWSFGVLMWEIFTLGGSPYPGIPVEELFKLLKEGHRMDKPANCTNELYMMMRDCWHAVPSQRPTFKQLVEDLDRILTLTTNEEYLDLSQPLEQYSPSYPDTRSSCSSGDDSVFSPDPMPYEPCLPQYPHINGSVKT
Test: Inhibition of N-terminal GST tagged recombinant human FGFR2 (400 to 821 residues) expressed in an Sf9 infected baculovirus expression system using biotin-EQEDEPEGDYFEWLE-amide as substrate preincubated for 5 to 10 mins followed by substrate addition and measured after 1 hr by HTRF assay
pIC50: −log10 of the molar value.
testReadout: pIC50

In [3]: df
Out[3]:
                            smilesstructure  datavalue
0  [2H]C([2H])([2H])NC(=O)c1cncc(-c2cnn3cc(-c4ccn(C(C)C)n4)c(N[C@H]4CCOC4)nc23)c1       9.70

====

Target: Cytochrome P450 3A4 (Homo sapiens, UniProt P08684)
Sequence (P08684 whole entry): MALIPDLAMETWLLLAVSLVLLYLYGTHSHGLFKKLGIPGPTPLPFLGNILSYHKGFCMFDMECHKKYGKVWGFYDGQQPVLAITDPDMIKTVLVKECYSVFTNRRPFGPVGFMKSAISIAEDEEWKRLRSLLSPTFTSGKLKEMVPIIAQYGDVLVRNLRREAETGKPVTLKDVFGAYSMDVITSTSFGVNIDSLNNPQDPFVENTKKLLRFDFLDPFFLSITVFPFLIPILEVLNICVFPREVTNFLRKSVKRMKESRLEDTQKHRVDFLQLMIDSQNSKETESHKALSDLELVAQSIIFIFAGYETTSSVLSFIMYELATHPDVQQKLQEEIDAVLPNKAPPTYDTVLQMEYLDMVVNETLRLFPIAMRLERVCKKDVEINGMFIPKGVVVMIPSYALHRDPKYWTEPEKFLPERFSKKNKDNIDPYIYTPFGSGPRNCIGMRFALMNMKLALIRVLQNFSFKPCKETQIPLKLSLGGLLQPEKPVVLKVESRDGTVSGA
testReadout: IC50 (µM)

>>> print(df.to_string())
                                   compound                              testedtarget  testreadout  unitdescriptor  operatorsymbol  datavalue
0  CNC(=O)c1cc(F)c(F)c(-c2cnc3cc(-c4cnn(C)c4)c(O[C@H]4CCOC4)nn23)c1  Cytochrome P450 3A4 (Homo sapiens, UniProt P08684)         IC50              µM               =        3.9
1  CNC(=O)c1cncc(-c2cnn3cc(-c4cnn(C)c4)c(OC4CCOC4)nc23)c1 (racemic)  Cytochrome P450 3A4 (Homo sapiens, UniProt P08684)         IC50              µM               >          5
2  CNC(=O)c1cncc(-c2cnn3cc(-c4cnn(C(C)C)c4)c(O[C@H]4CCOC4)nc23)c1  Cytochrome P450 3A4 (Homo sapiens, UniProt P08684)         IC50              µM               =          9

====

For Mast/stem cell growth factor receptor Kit (Homo sapiens, UniProt P10721), measured IC50 is reported for the entries below.
testReadout: IC50 (nM)

>>> print(df.to_string())
                                   compound  datavalue
0  CNC(=O)c1cc(C)cc(-c2cnc3cc(-c4cnn(C(C)C)c4)c(O[C@H]4CCOC4)nn23)c1         22
1  CNC(=O)c1cc(-c2cnc3cc(-c4cnn(C)c4)c(O[C@H]4CCOC4)nn23)c(F)c(C(F)F)c1        619
2  CNC(=O)c1cncc(-c2cnc3cc(-c4cnn(C)c4)c(OC4CCOC4)nn23)c1 (stereo not drawn)        284

====

Experiment: Apparent permeability in human Caco-2 cells at 50 uM incubated for 120 mins by LC-MS/MS analysis
Assay type: ADME, cell-based
One threshold, 2 ×10⁻⁶ cm/s, splits the recorded Papp at 2 h, 50 µM values: lower ones are t, equal or higher ones are f.

In [3]: df
Out[3]:
                                   molecule  label
0  CCNC(=O)c1cncc(-c2cnn3cc(-c4cnn(CC)c4)c(O[C@H]4CCOC4)nc23)c1      t
1  CNC(=O)c1cncc(-c2cnn3cc(-c4cnn(C)c4)c(OC4CCOC4)nc23)c1 (racemic)      t
2  CNC(=O)c1cncc(-c2cnn3cc(-c4cnn(C(C)C)c4)c(O[C@H]4CCOC4)nc23)c1      t
3  CNC(=O)c1cc(F)c(F)c(-c2cnc3cc(-c4cnn(C)c4)c(O[C@H]4CCOC4)nn23)c1      f
